Cited source for all entries: PubChem BioAssay AID2060883

tested on: 843782-103-R-J1-PDC complex spheroid viability; assay: Anticancer human tumor 843782-103-R-J1-PDC patient-derived lung adenocarcinoma cell line growth inhibition [RAS]; details: second compound 10 µM; first compound 0.0316 µM; active compounds read low
measured metric: viability, T/C (%)
Write the answer as a number in %, unit excluded.

Looking up CC1(O)CCCC1n1c(=O)c(C(F)F)cc2cnc(NC3CCN(S(C)(=O)=O)CC3)nc21 (centres undefined) + C#Cc1c(F)ccc2cc(O)cc(-c3ncc4c(N5CC6CCC(C5)N6)nc(OCC56CCCN5CC(F)C6)nc4c3F)c12 , I see its viability, T/C listed as 52.9

Looking up CC(C)n1nc(-c2ccc3oc(N)nc3c2)c2c(N)ncnc21 + C#Cc1c(F)ccc2cc(O)cc(-c3ncc4c(N5CC6CCC(C5)N6)nc(OCC56CCCN5CC(F)C6)nc4c3F)c12 , I see its viability, T/C listed as 18.8

Looking up Cc1nc(N2CCC3(CC2)COC(C)C3N)c(CO)nc1Sc1ccnc(N)c1Cl (centres undefined) + C#Cc1c(F)ccc2cc(O)cc(-c3ncc4c(N5CC6CCC(C5)N6)nc(OCC56CCCN5CC(F)C6)nc4c3F)c12 , I see its viability, T/C listed as 49.2

Looking up C=CC(=O)N1CCN(c2nc(OCC3CCCN3C)nc3c(F)c(-c4nc(N)cc(C)c4C(F)(F)F)c(Cl)cc23)C(C)C1 (centres undefined) + C#Cc1c(F)ccc2cc(O)cc(-c3ncc4c(N5CC6CCC(C5)N6)nc(OCC56CCCN5CC(F)C6)nc4c3F)c12 , I see its viability, T/C listed as 44.8

###

test system: 843782-103-R-J1-PDC complex spheroid viability; test: Anticancer human tumor 843782-103-R-J1-PDC cell line growth inhibition [RAS]; conditions: second compound 0.03 µM; first compound 0.316 µM; active compounds read low;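 also: viability read after seven days of compound exposure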
With a cut-off of 20%, any viability, T/C strictly below it is called 1; any viability, T/C meeting it or above is called 0.

Query: Threshold test, viability, T/C < 20%: C=CC(=O)Nc1cc(Nc2nccc(-c3cn(C)c4ccccc34)n2)c(OC)cc1N(C)CCN(C)C + CCn1c(-c2cccnc2C(C)OC)c2c3cc(ccc31)N1CCOC(CC(NC(=O)C(C(C)C)N(C)C(=O)C3(F)CCN(C(=O)C#CC(C)(C)N(C)C)CC3)C(=O)N3CCCC(N3)C(=O)OCC(C)(C)C2)C1
Result: 0

Query: Threshold test, viability, T/C < 20%: C[C@@H](NC(=O)c1ncnc(N)c1Cl)c1ncc(C(=O)Nc2cc(C(F)(F)F)c(Cl)cn2)s1 + CCn1c(-c2cccnc2C(C)OC)c2c3cc(ccc31)N1CCOC(CC(NC(=O)C(C(C)C)N(C)C(=O)C3(F)CCN(C(=O)C#CC(C)(C)N(C)C)CC3)C(=O)N3CCCC(N3)C(=O)OCC(C)(C)C2)C1
Result: 0

Query: Threshold test, viability, T/C < 20%: CC(C)NCC(C(=O)N1CCN(c2ncnc3c2C(C)CC3O)CC1)c1ccc(Cl)cc1 (configuration not stated) + CCn1c(-c2cc(N3CCN(C)CC3)cnc2C(C)OC)c2c3cc(ccc31)-c1csc(n1)CC(NC(=O)C1CC1C)C(=O)N1CCCC(N1)C(=O)OCC(C)(C)C2
Result: 1

Query: Threshold test, viability, T/C < 20%: NC1c2ccccc2OC12CCN(c1cnc3c(N4CCCc5ncccc54)n[nH]c3n1)CC2 (configuration not stated) + CCn1c(-c2cccnc2C(C)OC)c2c3cc(ccc31)N1CCOC(CC(NC(=O)C(C(C)C)N(C)C(=O)C3(F)CCN(C(=O)C#CC(C)(C)N(C)C)CC3)C(=O)N3CCCC(N3)C(=O)OCC(C)(C)C2)C1
Result: 0

Query: Threshold test, viability, T/C < 20%: C=CC(=O)N1CCN(c2nc(OCC3CCCN3C)nc3c(F)c(-c4nc(N)cc(C)c4C(F)(F)F)c(Cl)cc23)C(C)C1 (configuration not stated) + CCn1c(-c2cc(N3CCN(C)CC3)cnc2C(C)OC)c2c3cc(ccc31)-c1csc(n1)CC(NC(=O)C1CC1C)C(=O)N1CCCC(N1)C(=O)OCC(C)(C)C2
Result: 0

Query: Threshold test, viability, T/C < 20%: NC1c2ccccc2OC12CCN(c1cnc3c(N4CCCc5ncccc54)n[nH]c3n1)CC2 (configuration not stated) + CCn1c(-c2cc(N3CCN(C)CC3)cnc2C(C)OC)c2c3cc(ccc31)-c1csc(n1)CC(NC(=O)C1CC1C)C(=O)N1CCCC(N1)C(=O)OCC(C)(C)C2
Result: 1

Query: Threshold test, viability, T/C < 20%: CC(=O)OC12COC1CC(O)C1(C)C(=O)C(O)C3=C(C)C(OC(=O)C(O)C(NC(=O)OC(C)(C)C)c4ccccc4)CC(O)(C(OC(=O)c4ccccc4)C21)C3(C)C (configuration not stated) + CCn1c(-c2cc(N3CCN(C)CC3)cnc2C(C)OC)c2c3cc(ccc31)-c1csc(n1)CC(NC(=O)C1CC1C)C(=O)N1CCCC(N1)C(=O)OCC(C)(C)C2
Result: 1

Query: Threshold test, viability, T/C < 20%: CC(Nc1ccc2c(c1)OCCn1cc(N3C(=O)OCC3C(F)F)nc1-2)C(N)=O (configuration not stated) + CCn1c(-c2cc(N3CCN(C)CC3)cnc2C(C)OC)c2c3cc(ccc31)-c1csc(n1)CC(NC(=O)C1CC1C)C(=O)N1CCCC(N1)C(=O)OCC(C)(C)C2
Result: 1

Query: Threshold test, viability, T/C < 20%: Cc1nc(N2CCC3(CC2)COC(C)C3N)c(CO)nc1Sc1ccnc(N)c1Cl (configuration not stated) + CCn1c(-c2cc(N3CCN(C)CC3)cnc2C(C)OC)c2c3cc(ccc31)-c1csc(n1)CC(NC(=O)C1CC1C)C(=O)N1CCCC(N1)C(=O)OCC(C)(C)C2
Result: 1

Query: Threshold test, viability, T/C < 20%: C=CC(=O)N1CCN(c2nc(OCC3CCCN3C)nc3c(F)c(-c4nc(N)cc(C)c4C(F)(F)F)c(Cl)cc23)C(C)C1 (configuration not stated) + CCn1c(-c2cccnc2C(C)OC)c2c3cc(ccc31)N1CCOC(CC(NC(=O)C(C(C)C)N(C)C(=O)C3(F)CCN(C(=O)C#CC(C)(C)N(C)C)CC3)C(=O)N3CCCC(N3)C(=O)OCC(C)(C)C2)C1
Result: 0

Query: Threshold test, viability, T/C < 20%: Cc1nc(N2CCC3(CC2)COC(C)C3N)c(CO)nc1Sc1ccnc(N)c1Cl (configuration not stated) + CCn1c(-c2cccnc2C(C)OC)c2c3cc(ccc31)N1CCOC(CC(NC(=O)C(C(C)C)N(C)C(=O)C3(F)CCN(C(=O)C#CC(C)(C)N(C)C)CC3)C(=O)N3CCCC(N3)C(=O)OCC(C)(C)C2)C1
Result: 0

Query: Threshold test, viability, T/C < 20%: CCN1CCN(Cc2ccc(Nc3ncc(F)c(-c4cc(F)c5nc(C)n(C(C)C)c5c4)n3)nc2)CC1 + CCn1c(-c2cc(N3CCN(C)CC3)cnc2C(C)OC)c2c3cc(ccc31)-c1csc(n1)CC(NC(=O)C1CC1C)C(=O)N1CCCC(N1)C(=O)OCC(C)(C)C2
Result: 1

Query: Threshold test, viability, T/C < 20%: O=C(c1ccc(F)c(F)c1Nc1ccc(I)cc1F)N1CC(O)([C@@H]2CCCCN2)C1 + CCn1c(-c2cc(N3CCN(C)CC3)cnc2C(C)OC)c2c3cc(ccc31)-c1csc(n1)CC(NC(=O)C1CC1C)C(=O)N1CCCC(N1)C(=O)OCC(C)(C)C2
Result: 1

Query: Threshold test, viability, T/C < 20%: CCC(CC)c1cc(NC2CCC(N)C2)n2nccc2n1 (configuration not stated) + CCn1c(-c2cc(N3CCN(C)CC3)cnc2C(C)OC)c2c3cc(ccc31)-c1csc(n1)CC(NC(=O)C1CC1C)C(=O)N1CCCC(N1)C(=O)OCC(C)(C)C2
Result: 0

Query: Threshold test, viability, T/C < 20%: CC(Nc1ccc2c(c1)OCCn1cc(N3C(=O)OCC3C(F)F)nc1-2)C(N)=O (configuration not stated) + CCn1c(-c2cccnc2C(C)OC)c2c3cc(ccc31)N1CCOC(CC(NC(=O)C(C(C)C)N(C)C(=O)C3(F)CCN(C(=O)C#CC(C)(C)N(C)C)CC3)C(=O)N3CCCC(N3)C(=O)OCC(C)(C)C2)C1
Result: 0

Query: Threshold test, viability, T/C < 20%: Nc1ccn(C2OC(CO)C(O)C2(F)F)c(=O)n1 (configuration not stated) + CCn1c(-c2cccnc2C(C)OC)c2c3cc(ccc31)N1CCOC(CC(NC(=O)C(C(C)C)N(C)C(=O)C3(F)CCN(C(=O)C#CC(C)(C)N(C)C)CC3)C(=O)N3CCCC(N3)C(=O)OCC(C)(C)C2)C1
Result: 1

Query: Threshold test, viability, T/C < 20%: CC1(O)CCCC1n1c(=O)c(C(F)F)cc2cnc(NC3CCN(S(C)(=O)=O)CC3)nc21 (configuration not stated) + CCn1c(-c2cc(N3CCN(C)CC3)cnc2C(C)OC)c2c3cc(ccc31)-c1csc(n1)CC(NC(=O)C1CC1C)C(=O)N1CCCC(N1)C(=O)OCC(C)(C)C2
Result: 1
